System: S. Marcescens GC1781 Sme-1 + Ampc
protocol summary: Antimicrobial susceptibility testing, microbroth dilution MIC of piperacillin + inhibitor
Assay type: cell-based
condition: piperacillin combined with constant 4 μg/ml inhibitor; Inc: 35° C. for 18 hours
Give Minimal Inhibitory Concentration S. Marcescens GC1781 Sme-1 + Ampc for every item shown.
Write the numeric value and follow it with the unit.

# input I am curious: what Minimal Inhibitory Concentration S. Marcescens GC1781 Sme-1 + Ampc value has been reported for "O=C(O)C1=CS[C@@H]2/C(=C\c3cn4c5c(sc4n3)CCCC5)C(=O)N12" ?
# output 8 µg/mL

# input Okay, and "O=C([O-])C1=CS[C@@H]2/C(=C\c3cc4c(s3)-c3cccnc3SC4)C(=O)N12.[Na+]" ?
# output 2 µg/mL

# input What about this compound? "Cc1ccc2c(c1)sc1nc(/C=C3/C(=O)N4C(C(=O)O)=CS[C@H]34)cn12"
# output 0.5 µg/mL

# input What about "Cn1c2ccccc2n2cc(/C=C3/C(=O)N4C(C(=O)O)=CS[C@H]34)nc12" ?
# output 2 µg/mL

# input Try "O=C(O)C1=CS[C@@H]2/C(=C\c3cn4c5c(sc4n3)CCC5)C(=O)N12" next.
# output 0.5 µg/mL
